Reference for the values: the supplement of paper PMC10567573

// reported protein stability index per item
B1: MMP1 (parent)
chain: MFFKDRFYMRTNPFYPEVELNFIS

# Variants of: B1
# test.method.notes: protein stability index of a GFP-peptide fusion (GPS, HEK-293T) (PSI 1-6); higher = more stable;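 further: lentivirally expressed fusions sorted by FACS into six bins by GFP to DsRed ratio, PSI derived from sequencing read proportions per bin multiplied by bin number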
# experimental.parameters: c terminus: a fixed tail appended
No unit in the answer, please; the number alone is enough.

L20P    1.99
S24M    2.75
N21S    2.91
I23Y    1.75

The measured protein stability index associated with L20D reads 2.28

Lab note: measured protein stability index of E19L was 2.64
